Where do the numbers come from? From paper PMC12827894.

assayed system: TRPC4 (Homo sapiens, UniProt Q9UBN4)
Sequence (Q9UBN4 whole entry): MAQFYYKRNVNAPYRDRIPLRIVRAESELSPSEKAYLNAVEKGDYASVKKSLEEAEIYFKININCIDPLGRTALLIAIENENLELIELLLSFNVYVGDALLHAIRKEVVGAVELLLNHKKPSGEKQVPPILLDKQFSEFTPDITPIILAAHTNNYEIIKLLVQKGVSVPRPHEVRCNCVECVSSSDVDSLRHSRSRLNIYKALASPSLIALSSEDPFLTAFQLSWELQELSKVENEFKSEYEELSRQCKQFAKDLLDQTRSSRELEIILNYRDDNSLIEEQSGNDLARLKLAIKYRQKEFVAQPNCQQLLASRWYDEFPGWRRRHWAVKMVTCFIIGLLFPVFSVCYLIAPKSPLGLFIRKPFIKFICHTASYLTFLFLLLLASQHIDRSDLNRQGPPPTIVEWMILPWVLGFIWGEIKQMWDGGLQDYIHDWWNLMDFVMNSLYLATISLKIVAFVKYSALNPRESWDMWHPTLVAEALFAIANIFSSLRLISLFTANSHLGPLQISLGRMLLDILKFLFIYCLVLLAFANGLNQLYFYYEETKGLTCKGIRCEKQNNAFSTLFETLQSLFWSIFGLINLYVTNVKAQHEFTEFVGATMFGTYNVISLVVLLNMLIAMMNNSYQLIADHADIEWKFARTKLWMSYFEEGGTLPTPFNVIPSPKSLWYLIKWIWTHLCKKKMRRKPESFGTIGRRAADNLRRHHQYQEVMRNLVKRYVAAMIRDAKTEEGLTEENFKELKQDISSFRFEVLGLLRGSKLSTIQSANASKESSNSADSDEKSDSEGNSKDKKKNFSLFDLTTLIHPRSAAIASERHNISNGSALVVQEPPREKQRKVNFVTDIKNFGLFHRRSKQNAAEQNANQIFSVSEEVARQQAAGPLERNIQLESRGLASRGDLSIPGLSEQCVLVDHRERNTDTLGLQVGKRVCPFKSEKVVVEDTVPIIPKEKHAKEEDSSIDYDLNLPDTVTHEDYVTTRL
assay explanation: Whole-cell patch-clamp, TRPC4, 100 nmol/L EA
setup conditions: HEK293T
measured attribute: pIC50
Reminder that pIC50 means the negative base-10 logarithm of the concentration expressed in mol/L.

# value of pIC50, TRPC4 (Homo sapiens, UniProt Q9UBN4), item O=c1c2c3nc(n2Cc2ccc(Cl)cc2)Oc2ccc(F)c(c2)OCCCCCCn3c(=O)n1CCCO = 12.00

###

assayed system: UniProtKB Q01959
Sequence (Q01959 whole entry): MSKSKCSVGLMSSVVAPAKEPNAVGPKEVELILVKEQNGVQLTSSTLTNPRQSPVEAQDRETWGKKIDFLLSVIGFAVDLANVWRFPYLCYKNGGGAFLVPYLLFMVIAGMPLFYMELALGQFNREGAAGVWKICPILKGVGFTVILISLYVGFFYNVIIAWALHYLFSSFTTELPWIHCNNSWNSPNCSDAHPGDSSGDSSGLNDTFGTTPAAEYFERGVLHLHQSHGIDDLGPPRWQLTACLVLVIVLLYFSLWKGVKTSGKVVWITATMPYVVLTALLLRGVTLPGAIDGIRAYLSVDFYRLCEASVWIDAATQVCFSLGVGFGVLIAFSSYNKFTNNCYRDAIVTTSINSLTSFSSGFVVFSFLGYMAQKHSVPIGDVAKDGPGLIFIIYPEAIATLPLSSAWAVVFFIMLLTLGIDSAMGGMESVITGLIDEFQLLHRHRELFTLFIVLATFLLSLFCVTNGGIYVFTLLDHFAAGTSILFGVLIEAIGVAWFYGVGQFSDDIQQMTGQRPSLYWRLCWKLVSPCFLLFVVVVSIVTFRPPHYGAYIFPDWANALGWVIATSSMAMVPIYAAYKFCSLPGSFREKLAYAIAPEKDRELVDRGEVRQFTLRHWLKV
assay explanation: SafetyOne44 panel: DAT
setup conditions: read-out: Antagonist Reference Compound IC50
measured attribute: pIC50
Reminder that pIC50 means the negative base-10 logarithm of the concentration expressed in mol/L.

For record c1ccc2cc([C@]34CNC[C@H]3C4)ccc2c1 [Centanafadine, reference compound] the listed pIC50 is 6.84

###

assayed system: TRPC1/4 (Homo sapiens, UniProt P48995+Q9UBN4)
Sequence (P48995 whole entry): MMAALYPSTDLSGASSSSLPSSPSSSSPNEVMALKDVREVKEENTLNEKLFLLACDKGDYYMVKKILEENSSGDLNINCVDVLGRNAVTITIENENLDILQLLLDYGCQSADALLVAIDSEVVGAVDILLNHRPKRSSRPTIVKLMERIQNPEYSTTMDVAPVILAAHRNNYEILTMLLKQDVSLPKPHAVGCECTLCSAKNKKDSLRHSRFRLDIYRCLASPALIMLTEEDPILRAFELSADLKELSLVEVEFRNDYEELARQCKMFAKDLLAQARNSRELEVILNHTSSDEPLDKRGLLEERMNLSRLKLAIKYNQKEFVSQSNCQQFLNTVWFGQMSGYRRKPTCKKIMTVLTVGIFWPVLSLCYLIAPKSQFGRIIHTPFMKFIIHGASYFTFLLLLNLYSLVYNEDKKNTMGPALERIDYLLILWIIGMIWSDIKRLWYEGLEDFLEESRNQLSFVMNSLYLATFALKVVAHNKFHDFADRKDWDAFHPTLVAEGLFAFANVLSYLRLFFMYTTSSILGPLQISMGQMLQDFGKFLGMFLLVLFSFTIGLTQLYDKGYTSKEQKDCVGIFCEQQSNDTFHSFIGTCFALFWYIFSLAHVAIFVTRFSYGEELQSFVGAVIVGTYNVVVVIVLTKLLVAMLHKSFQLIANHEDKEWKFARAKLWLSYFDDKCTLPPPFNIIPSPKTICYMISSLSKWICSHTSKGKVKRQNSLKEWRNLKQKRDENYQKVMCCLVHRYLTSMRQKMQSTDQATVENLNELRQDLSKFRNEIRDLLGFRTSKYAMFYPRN
Sequence (Q9UBN4 whole entry): as the sequence (Q9UBN4 whole entry) above
assay explanation: Whole-cell patch-clamp, TRPC1/4 heteromer, 100 nmol/L EA
setup conditions: read-out: IC50, TRPC1/4
Source text: Given that TRPC4 and TRPC5 are highly similar and often form heteromeric with TRPC1, we evaluated JDIC-127's activity on TRPC4, TRPC1/4, and TRPC1/5 using whole-cell patch-clamp recordings under agonist stimulation with 100 nmol/L EA in HEK293T cells. […]. […]
measured attribute: pIC50
Reminder that pIC50 means the negative base-10 logarithm of the concentration expressed in mol/L.

For record O=c1c2c3nc(n2Cc2ccc(Cl)cc2)Oc2ccc(F)c(c2)OCCCCCCn3c(=O)n1CCCO the listed pIC50 is 8.73

###

assayed system: 5-HT1B (Homo sapiens)
Sequence (P28222 whole entry): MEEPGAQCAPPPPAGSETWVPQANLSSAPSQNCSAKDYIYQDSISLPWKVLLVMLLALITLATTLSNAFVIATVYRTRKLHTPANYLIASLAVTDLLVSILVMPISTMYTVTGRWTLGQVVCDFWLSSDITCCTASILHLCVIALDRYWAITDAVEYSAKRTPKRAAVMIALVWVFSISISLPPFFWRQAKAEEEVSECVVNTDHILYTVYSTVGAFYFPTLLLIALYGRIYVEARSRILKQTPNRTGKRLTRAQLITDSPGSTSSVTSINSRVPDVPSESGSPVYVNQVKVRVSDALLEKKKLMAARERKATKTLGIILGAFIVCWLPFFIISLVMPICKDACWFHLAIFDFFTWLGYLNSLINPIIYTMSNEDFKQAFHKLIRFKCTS
assay explanation: cell-based
setup conditions: agonist mode, read-out: Agonist Reference Compound EC50
measured attribute: EC50 (nM)
Please give a number only; it is taken to be in nM.

For record COc1ccc2[nH]cc(C3=CCNCC3)c2c1 [RU 24969, reference compound] the listed EC50 is 4.25

###

assayed system: 5-HTT (Homo sapiens, UniProt P31645)
Sequence (P31645 whole entry): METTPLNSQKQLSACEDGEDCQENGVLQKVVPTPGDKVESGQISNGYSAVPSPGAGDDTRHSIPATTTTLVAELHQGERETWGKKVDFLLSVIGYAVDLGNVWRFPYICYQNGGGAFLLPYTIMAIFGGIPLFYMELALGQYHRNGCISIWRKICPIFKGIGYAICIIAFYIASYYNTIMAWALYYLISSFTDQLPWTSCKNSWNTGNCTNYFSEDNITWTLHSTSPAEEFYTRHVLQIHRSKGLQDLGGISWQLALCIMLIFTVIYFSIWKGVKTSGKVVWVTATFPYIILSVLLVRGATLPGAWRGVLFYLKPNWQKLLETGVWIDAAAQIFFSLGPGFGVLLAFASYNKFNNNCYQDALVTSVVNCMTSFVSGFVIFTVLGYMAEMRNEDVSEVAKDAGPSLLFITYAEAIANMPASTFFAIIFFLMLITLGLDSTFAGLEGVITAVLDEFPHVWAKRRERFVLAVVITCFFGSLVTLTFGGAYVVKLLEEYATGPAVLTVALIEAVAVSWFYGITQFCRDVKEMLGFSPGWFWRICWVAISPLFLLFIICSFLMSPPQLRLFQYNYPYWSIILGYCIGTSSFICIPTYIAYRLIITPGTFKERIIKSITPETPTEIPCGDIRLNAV
assay explanation: SafetyOne44 panel: 5-HTT
setup conditions: read-out: Antagonist Reference Compound IC50
measured attribute: pIC50
Reminder that pIC50 means the negative base-10 logarithm of the concentration expressed in mol/L.

For record c1ccc2cc([C@]34CNC[C@H]3C4)ccc2c1 [Centanafadine, reference compound] the listed pIC50 is 6.90

###

assay explanation: in vivo
setup conditions: male, C57BL/6, mouse, po, 10 mg/kg
measured attribute: Tmax (min)
Please give a number only; it is taken to be in min.

For record O=c1c2c3nc(n2Cc2ccc(Cl)cc2)Oc2ccc(F)c(c2)OCCCCCCn3c(=O)n1CCCO [JDIC-127] the listed Tmax is 15

###

assay explanation: in vitro
Type: in vitro ADME
setup conditions: not told
measured attribute: Papp (×10⁻⁶ cm/s)
Please give a number only; it is taken to be in ×10⁻⁶ cm/s.

For record O=c1c2c3nc(n2Cc2ccc(Cl)cc2)Oc2ccc(F)c(c2)OCCCCCCn3c(=O)n1CCCO the listed Papp is 1.51

###

assayed system: UniProt:Q9UL62
assay explanation: cell-based
setup conditions: HEK293T, 100 nmol/L Englerin A; read-out: IC50, inhibition of TRPC5, calcium flux assay
measured attribute: IC50 (nM)
Please give a number only; it is taken to be in nM.

For record O=c1c2c3nc(n2Cc2ccc(Cl)cc2)Oc2cccc(c2)COCCOCCn3c(=O)n1CCCO [compound 18] the listed IC50 is 170

For record O=c1c2c3nc(n2Cc2ccc(Cl)cc2)Oc2ccc(Cl)c(c2)OCCCCCCn3c(=O)n1CCCO [compound 9] the listed IC50 is 97.5

For record CC(CO)Cn1c(=O)c2c3nc(n2Cc2ccc(Cl)cc2)Oc2cccc(c2)OCCCCCCn3c1=O (stereo not shown) [compound 22] the listed IC50 is 220

For record O=c1c2c3nc(n2Cc2ccc(Cl)cc2)Oc2cccc(c2)OCCCCCCCn3c(=O)n1CCCO [compound 7] the listed IC50 is 19.2

###

assay explanation: in vivo
setup conditions: male, C57BL/6, mouse, po, 10 mg/kg
measured attribute: Cmax
The reply must contain the numeric value and, after it, the unit.

For record O=c1c2c3nc(n2Cc2ccc(Cl)cc2)Oc2ccc(F)c(c2)OCCCCCCn3c(=O)n1CCCO [JDIC-127] the listed Cmax is 177 ng/mL

###

assay explanation: in vivo
setup conditions: male, C57BL/6, mouse, po, 10 mg/kg
measured attribute: MRT (h)
Please give a number only; it is taken to be in h.

For record O=c1c2c3nc(n2Cc2ccc(Cl)cc2)Oc2ccc(F)c(c2)OCCCCCCn3c(=O)n1CCCO the listed MRT is 1.9

###

assay explanation: in vivo
setup conditions: male, C57BL/6, mouse, iv, 2 mg/kg
measured attribute: half-life (min)
Please give a number only; it is taken to be in min.

For record O=c1c2c3nc(n2Cc2ccc(Cl)cc2)Oc2ccc(F)c(c2)OCCCCCCn3c(=O)n1CCCO [JDIC-127] the listed half-life is 59.4

###

assay explanation: in vivo
setup conditions: male, C57BL/6, mouse, iv, 2 mg/kg, Vd, C57BL/6, 2 mpk
measured attribute: Vd (L/kg)
Please give a number only; it is taken to be in L/kg.

For record O=c1c2c3nc(n2Cc2ccc(Cl)cc2)Oc2ccc(F)c(c2)OCCCCCCn3c(=O)n1CCCO the listed Vd is 5.71

###

assayed system: H2 (Homo sapiens, UniProt P25021)
Sequence (P25021 whole entry): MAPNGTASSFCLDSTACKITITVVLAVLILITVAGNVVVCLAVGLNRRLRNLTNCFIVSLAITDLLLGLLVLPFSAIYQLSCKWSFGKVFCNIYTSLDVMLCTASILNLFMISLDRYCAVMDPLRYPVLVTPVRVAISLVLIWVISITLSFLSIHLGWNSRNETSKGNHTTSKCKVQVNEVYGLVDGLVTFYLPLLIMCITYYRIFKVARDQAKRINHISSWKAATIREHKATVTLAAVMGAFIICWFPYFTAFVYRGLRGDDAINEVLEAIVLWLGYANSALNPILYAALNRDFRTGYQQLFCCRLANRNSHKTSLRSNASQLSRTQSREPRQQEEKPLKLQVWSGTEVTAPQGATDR
assay explanation: SafetyOne44 panel: H2
setup conditions: H2, antagonist mode; read-out: Antagonist Reference Compound IC50
measured attribute: pIC50
Reminder that pIC50 means the negative base-10 logarithm of the concentration expressed in mol/L.

For record CNC(=C[N+](=O)[O-])NCCSCc1csc(CN(C)C)n1 [Nizatidine, reference compound] the listed pIC50 is 6.95

###

assayed system: TRPC1/5 (Homo sapiens, UniProt P48995+Q9UL62)
Construct: full-length wild-type or mutant TRPC5 was cloned into a pcDNA3.1 vector
Sequence (P48995 whole entry): as the sequence (P48995 whole entry) above
Sequence (Q9UL62 whole entry): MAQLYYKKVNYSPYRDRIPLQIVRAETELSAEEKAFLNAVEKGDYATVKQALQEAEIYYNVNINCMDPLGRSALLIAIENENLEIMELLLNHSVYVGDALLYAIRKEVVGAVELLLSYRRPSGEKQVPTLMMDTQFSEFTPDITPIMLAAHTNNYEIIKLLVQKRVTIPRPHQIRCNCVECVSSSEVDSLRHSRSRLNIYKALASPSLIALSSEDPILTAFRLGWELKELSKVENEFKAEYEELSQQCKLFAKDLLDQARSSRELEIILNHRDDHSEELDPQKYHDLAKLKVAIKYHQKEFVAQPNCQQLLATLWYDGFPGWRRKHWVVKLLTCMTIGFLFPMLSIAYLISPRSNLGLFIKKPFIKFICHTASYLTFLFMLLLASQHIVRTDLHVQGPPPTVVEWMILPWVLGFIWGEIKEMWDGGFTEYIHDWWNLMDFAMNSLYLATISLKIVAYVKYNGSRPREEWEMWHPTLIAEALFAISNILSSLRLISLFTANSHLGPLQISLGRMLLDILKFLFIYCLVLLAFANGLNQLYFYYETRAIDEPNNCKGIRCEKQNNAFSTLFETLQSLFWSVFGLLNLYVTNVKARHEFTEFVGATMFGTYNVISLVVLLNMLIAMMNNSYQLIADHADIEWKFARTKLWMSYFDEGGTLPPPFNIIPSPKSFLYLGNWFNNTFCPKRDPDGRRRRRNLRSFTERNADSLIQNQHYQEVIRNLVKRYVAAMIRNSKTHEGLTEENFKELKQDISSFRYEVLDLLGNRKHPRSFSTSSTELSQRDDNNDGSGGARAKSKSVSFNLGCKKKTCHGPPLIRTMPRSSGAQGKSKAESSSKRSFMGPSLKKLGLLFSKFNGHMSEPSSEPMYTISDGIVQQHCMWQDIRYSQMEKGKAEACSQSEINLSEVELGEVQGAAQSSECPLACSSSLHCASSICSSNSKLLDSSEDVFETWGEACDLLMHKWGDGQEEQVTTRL
assay explanation: Whole-cell patch-clamp, TRPC1/5 heteromer, 100 nmol/L EA
setup conditions: read-out: IC50, TRPC1/5
measured attribute: pIC50
Reminder that pIC50 means the negative base-10 logarithm of the concentration expressed in mol/L.

For record O=c1c2c3nc(n2Cc2ccc(Cl)cc2)Oc2ccc(F)c(c2)OCCCCCCn3c(=O)n1CCCO the listed pIC50 is 9.45

###

assay explanation: in vivo
setup conditions: male, C57BL/6, mouse, po, 10 mg/kg, B/P, 180 min
measured attribute: Kp
Lab note: record just the number, no unit beside it.

For record O=c1c2c3nc(n2Cc2ccc(Cl)cc2)Oc2ccc(F)c(c2)OCCCCCCn3c(=O)n1CCCO the listed Kp is 0.32

###

Record form. Attribute: IC50. Fill in for each entry.
assayed system: TRPC5 (Homo sapiens, UniProt Q9UL62)
Sequence (Q9UL62 whole entry, species assumed): as the sequence (Q9UL62 whole entry) above
assay explanation: cell-based
setup conditions: HEK293T, 100 nmol/L Englerin A; read-out: IC50, inhibition of TRPC5, calcium flux assay
Please give a number only; it is taken to be in nM.

For record CC(O)CCn1c(=O)c2c3nc(n2Cc2ccc(Cl)cc2)Oc2cccc(c2)OCCCCCCn3c1=O (centres unmarked) the listed IC50 is 10

For record CC(C)(O)CCn1c(=O)c2c3nc(n2Cc2ccc(Cl)cc2)Oc2cccc(c2)OCCCCCCn3c1=O the listed IC50 is 10000

For record CCCn1c2nc3c1c(=O)n(CCCO)c(=O)n3CCCCCCOc1cccc(c1)O2 the listed IC50 is 3500

For record O=c1c2c3nc(n2Cc2ccc(Cl)cc2)Oc2cccc(c2)OCCCCCn3c(=O)n1CCCO the listed IC50 is 28.4

For record O=c1c2c3nc(n2Cc2ccc(Cl)cc2)Oc2cccc(c2)OCCCCCCn3c(=O)n1CC(O)CO (centres unmarked) the listed IC50 is 790

For record O=c1c2c3nc(n2Cc2ccc(Cl)cc2)Oc2cncc(c2)OCCCCCCn3c(=O)n1CCCO the listed IC50 is 0.08

For record O=c1c2c3nc(n2Cc2ccc(Cl)cc2)Oc2cccc(c2)OCCNCCCn3c(=O)n1CCCO the listed IC50 is 840

For record O=c1c2c3nc(n2Cc2cccc(Cl)c2)Oc2cccc(c2)OCCCCCCn3c(=O)n1CCCO the listed IC50 is 1.8

For record O=c1c2c3nc(n2CCC(F)(F)F)Oc2cccc(c2)OCCCCCCn3c(=O)n1CCCO the listed IC50 is 1200
